# System: Rattus norvegicus
# assay-name: Compound was evaluated for the contralateral turning in 6-hydroxy-dopamine-lesioned rats administered intraperitoneally at the dose 1 mg/kg
# Type: functional
# condition-context: route intraperitoneal
Please provide measured Duration for the entries that follow.
Respond numerically; units are h and should not be typed.

Determine reported Duration for CCCN(CCCNS(=O)(=O)N(C)C)C1CCc2c(O)cccc2C1 (configuration not stated) ; test system: Rattus norvegicus. 4

Determine reported Duration for CCCN(CCCS(C)(=O)=O)C1CCc2c(O)cccc2C1 (configuration not stated) ; test system: Rattus norvegicus. 1

Determine reported Duration for CCCN(CCCC(=O)NC)C1CCc2c(O)cccc2C1 (configuration not stated) ; test system: Rattus norvegicus. 6

Determine reported Duration for CCCN(CCCNC(=O)OCC)C1CCc2c(O)cccc2C1 (configuration not stated) ; test system: Rattus norvegicus. 5

Determine reported Duration for CCCN(CCCNC(C)=O)C1CCc2c(O)cccc2C1 (configuration not stated) ; test system: Rattus norvegicus. 4

Determine reported Duration for CCCN(CCNS(=O)(=O)N(CC)CC)C1CCc2c(O)cccc2C1 (configuration not stated) ; test system: Rattus norvegicus. 3

Value source: ChEMBL document CHEMBL1123289
